tgt: human adenylate kinase isoenzyme 1 (hAK1) (Homo sapiens, UniProt P00568)
Construct: thrombin recognition site (C); 6xHis-tag (C); made in house; host or cells: E. coli BL21-CodonPlus(DE3)-RIL, pET-3a(+)
measurement.notes: Adenylate kinase activity assay and enzyme inhibition studies (RP-HPLC), hAK1
Type: biochemical
condition.info: 37 °C, 1 mM ADP, ATP synthesis direction; read-out: IC50 (ADP as a Substrate)
IC50 strictly under 100 µM means Met; at 100 µM or over means Not met.

Request: # TODO verify IC50 < 100 µM strictly for this compound: CCC(C)(C)C(=O)O[C@H]1C[C@@H](C)C=C2C=C[C@H](C)[C@H](CC[C@@H]3C[C@@H](O)CC(=O)O3)[C@H]21 [SVS, Simvastatin]
Response: Met

Request: # TODO verify IC50 < 100 µM strictly for this compound: CC(C)c1c(C(=O)Nc2ccccc2)c(-c2ccccc2)c(-c2ccc(F)cc2)n1CC[C@@H](O)C[C@@H](O)CC(=O)O [AVS, Atorvastatin]
Response: Not met

Request: # TODO verify IC50 < 100 µM strictly for this compound: CC[C@H](C)C(=O)O[C@H]1C[C@H](O)C=C2C=C[C@H](C)[C@H](CC[C@@H](O)C[C@@H](O)CC(=O)O)[C@H]21 [PVS, Pravastatin]
Response: Met

Request: # TODO verify IC50 < 100 µM strictly for this compound: CC(C)c1nc(N(C)S(C)(=O)=O)nc(-c2ccc(F)cc2)c1/C=C/[C@@H](O)C[C@@H](O)CC(=O)O [RVS, Rosuvastatin]
Response: Not met

Request: # TODO verify IC50 < 100 µM strictly for this compound: CC(C)n1c(/C=C/C(O)CC(O)CC(=O)O)c(-c2ccc(F)cc2)c2ccccc21 (centres unmarked) [FVS, Fluvastatin]
Response: Not met

###

tgt: human adenylate kinase isoenzyme 1 (hAK1) (Homo sapiens, UniProt P00568)
Construct: thrombin recognition site (C); 6xHis-tag (C); made in house; host or cells: E. coli BL21-CodonPlus(DE3)-RIL, pET-3a(+)
Sequence (P00568 1-194): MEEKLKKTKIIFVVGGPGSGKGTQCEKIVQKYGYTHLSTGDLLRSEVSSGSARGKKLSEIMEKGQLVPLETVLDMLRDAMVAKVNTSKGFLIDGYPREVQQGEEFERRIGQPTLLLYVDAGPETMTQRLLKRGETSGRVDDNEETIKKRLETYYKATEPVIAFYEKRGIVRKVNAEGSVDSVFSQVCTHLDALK
measurement.notes: Fluorescence quenching of hAK1 intrinsic (tyrosine) fluorescence by statins, one-site binding model
condition.info: 37 °C, 2 µM hAK1, 25 mM HEPES-NaOH pH 7.5; read-out: Kd (dissociation constant)
property.label: Kd (µM)
A number alone suffices; assume µM.

Request: Name the recorded Kd of the item CC(C)c1nc(N(C)S(C)(=O)=O)nc(-c2ccc(F)cc2)c1/C=C/[C@@H](O)C[C@@H](O)CC(=O)O in your answer.
Response: 18.9

Request: Name the recorded Kd of the item CCC(C)(C)C(=O)O[C@H]1C[C@@H](C)C=C2C=C[C@H](C)[C@H](CC[C@@H]3C[C@@H](O)CC(=O)O3)[C@H]21 in your answer.
Response: 15.2

Request: Name the recorded Kd of the item CC[C@H](C)C(=O)O[C@H]1C[C@H](O)C=C2C=C[C@H](C)[C@H](CC[C@@H](O)C[C@@H](O)CC(=O)O)[C@H]21 in your answer.
Response: 28.6

Request: Name the recorded Kd of the item CC(C)c1c(C(=O)Nc2ccccc2)c(-c2ccccc2)c(-c2ccc(F)cc2)n1CC[C@@H](O)C[C@@H](O)CC(=O)O in your answer.
Response: 29.5

Request: Name the recorded Kd of the item CC(C)n1c(/C=C/C(O)CC(O)CC(=O)O)c(-c2ccc(F)cc2)c2ccccc21 (centres unmarked) in your answer.
Response: 26.6

###

tgt: human adenylate kinase isoenzyme 1 (hAK1) (Homo sapiens, UniProt P00568)
Construct: thrombin recognition site (C); 6xHis-tag (C); made in house; host or cells: E. coli BL21-CodonPlus(DE3)-RIL, pET-3a(+)
measurement.notes: Fluorescence quenching of hAK1 intrinsic (tyrosine) fluorescence by statins, one-site binding model
condition.info: 37 °C; read-out: Kd (dissociation constant)
property.label: Kd

Request: Name the recorded Kd of the item CCC(C)(C)C(=O)O[C@H]1C[C@@H](C)C=C2C=C[C@H](C)[C@H](CC[C@@H]3C[C@@H](O)CC(=O)O3)[C@H]21 [SVS, Simvastatin] in your answer.
Response: 15.2 µM

###

Hi there, I'd appreciate the recorded pIC50 for every entry that follows.
tgt: human adenylate kinase isoenzyme 1 (hAK1) (Homo sapiens, UniProt P00568)
Construct: thrombin recognition site (C); 6xHis-tag (C); made in house; host or cells: E. coli BL21-CodonPlus(DE3)-RIL, pET-3a(+)
measurement.notes: Adenylate kinase activity assay and enzyme inhibition studies (RP-HPLC), hAK1
Assay type: biochemical
condition.info: 37 °C, 1 mM AMP and ATP each, ADP synthesis direction; read-out: IC50 (ATP + AMP as Substrates)
Quick note: pIC50 means taking -log10 of the concentration in moles per liter.

Request: Name the recorded pIC50 of the item CC[C@H](C)C(=O)O[C@H]1C[C@H](O)C=C2C=C[C@H](C)[C@H](CC[C@@H](O)C[C@@H](O)CC(=O)O)[C@H]21 in your answer.
Response: 3.68

Request: Name the recorded pIC50 of the item CC(C)c1nc(N(C)S(C)(=O)=O)nc(-c2ccc(F)cc2)c1/C=C/[C@@H](O)C[C@@H](O)CC(=O)O in your answer.
Response: 4.05

Request: Name the recorded pIC50 of the item CCC(C)(C)C(=O)O[C@H]1C[C@@H](C)C=C2C=C[C@H](C)[C@H](CC[C@@H]3C[C@@H](O)CC(=O)O3)[C@H]21 in your answer.
Response: 5.51

Request: Name the recorded pIC50 of the item CC(C)n1c(/C=C/C(O)CC(O)CC(=O)O)c(-c2ccc(F)cc2)c2ccccc21 (centres unmarked) in your answer.
Response: 3.81

Request: Name the recorded pIC50 of the item CC(C)c1c(C(=O)Nc2ccccc2)c(-c2ccccc2)c(-c2ccc(F)cc2)n1CC[C@@H](O)C[C@@H](O)CC(=O)O in your answer.
Response: 3.63

###

tgt: human adenylate kinase isoenzyme 1 (hAK1) (Homo sapiens)
Construct: thrombin recognition site (C); 6xHis-tag (C); made in house; host or cells: E. coli BL21-CodonPlus(DE3)-RIL, pET-3a(+)
measurement.notes: Fluorescence quenching of hAK1 intrinsic (tyrosine) fluorescence by statins, one-site binding model
condition.info: 20 °C, 2 µM hAK1, 25 mM HEPES-NaOH pH 7.5; read-out: Kd (dissociation constant)
property.label: Kd
Please give the number followed by its unit.

Request: Name the recorded Kd of the item CC[C@H](C)C(=O)O[C@H]1C[C@H](O)C=C2C=C[C@H](C)[C@H](CC[C@@H](O)C[C@@H](O)CC(=O)O)[C@H]21 [PVS, Pravastatin] in your answer.
Response: 19.4 µM

Request: Name the recorded Kd of the item CC(C)n1c(/C=C/C(O)CC(O)CC(=O)O)c(-c2ccc(F)cc2)c2ccccc21 (centres unmarked) [FVS, Fluvastatin] in your answer.
Response: 17.4 µM

Request: Name the recorded Kd of the item CC(C)c1nc(N(C)S(C)(=O)=O)nc(-c2ccc(F)cc2)c1/C=C/[C@@H](O)C[C@@H](O)CC(=O)O [RVS, Rosuvastatin] in your answer.
Response: 9.2 µM

Request: Name the recorded Kd of the item CCC(C)(C)C(=O)O[C@H]1C[C@@H](C)C=C2C=C[C@H](C)[C@H](CC[C@@H]3C[C@@H](O)CC(=O)O3)[C@H]21 [SVS, Simvastatin] in your answer.
Response: 6.6 µM

Request: Name the recorded Kd of the item CC(C)c1c(C(=O)Nc2ccccc2)c(-c2ccccc2)c(-c2ccc(F)cc2)n1CC[C@@H](O)C[C@@H](O)CC(=O)O [AVS, Atorvastatin] in your answer.
Response: 16 µM

###

tgt: human adenylate kinase isoenzyme 1 (hAK1) (Homo sapiens, UniProt P00568)
Construct: thrombin recognition site (C); 6xHis-tag (C); made in house; host or cells: E. coli BL21-CodonPlus(DE3)-RIL, pET-3a(+)
measurement.notes: Fluorescence quenching of hAK1 intrinsic (tyrosine) fluorescence by statins, one-site binding model
condition.info: 25 °C, 2 µM hAK1, 25 mM HEPES-NaOH pH 7.5; read-out: Kd (dissociation constant)
Hi there, I'd appreciate the recorded pKd for every entry that follows.
Quick note: pKd means taking -log10 of the concentration in moles per liter.

Request: Name the recorded pKd of the item CC(C)n1c(/C=C/C(O)CC(O)CC(=O)O)c(-c2ccc(F)cc2)c2ccccc21 (centres unmarked) in your answer.
Response: 4.64

Request: Name the recorded pKd of the item CC(C)c1nc(N(C)S(C)(=O)=O)nc(-c2ccc(F)cc2)c1/C=C/[C@@H](O)C[C@@H](O)CC(=O)O in your answer.
Response: 4.77

Request: Name the recorded pKd of the item CCC(C)(C)C(=O)O[C@H]1C[C@@H](C)C=C2C=C[C@H](C)[C@H](CC[C@@H]3C[C@@H](O)CC(=O)O3)[C@H]21 in your answer.
Response: 4.96

Request: Name the recorded pKd of the item CC(C)c1c(C(=O)Nc2ccccc2)c(-c2ccccc2)c(-c2ccc(F)cc2)n1CC[C@@H](O)C[C@@H](O)CC(=O)O in your answer.
Response: 4.57

Request: Name the recorded pKd of the item CC[C@H](C)C(=O)O[C@H]1C[C@H](O)C=C2C=C[C@H](C)[C@H](CC[C@@H](O)C[C@@H](O)CC(=O)O)[C@H]21 in your answer.
Response: 4.58
